- runDescription: qHTS for differential inhibitors of proliferation of Plasmodium falciparum line GB4 (AID 1816);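 further: parasite growth measured after 72 h incubation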
- experimentalSetup: Plasmodium falciparum GB4 proliferation inhibition; series mostly up to 28.7 µM
Records with an inconclusive call do not appear. Calls of active or inactive are those of the source. The call rests on the fitted dose curve; in most records, active means well fitted curve in the direction sought with a large enough effect; inconclusive means small, poorly fitted or top-dose-only effect, or another doubt; inactive means no such curve, though single readings can be large or run the other way.
Pick from Y = active, N = inactive when you respond.

{"molecule": "COc1ccc2c(c1)/C(=C/c1cnc[nH]1)C(=O)N2", "labelClass": "Y"}
{"molecule": "CC(N)Cc1c[nH]c2ccc(OCc3cccs3)cc12 (stereo not drawn)", "labelClass": "Y"}
{"molecule": "NNC(N)=O", "labelClass": "N"}
{"molecule": "NCC(CP(=O)(O)O)c1ccc(Cl)cc1 (stereo not drawn)", "labelClass": "N"}
{"molecule": "Cc1sc2ccccc2c1CC1=NCCN1", "labelClass": "Y"}

What classification did NC(N)=NOCC[C@H](N)C(=O)O end up with in this test?
N

Next record, please: NC(CCCCCP(=O)(O)O)C(=O)O (stereo not drawn)
N

Next record, please: COc1ccc(OC)c(C(O)C(C)N)c1 (stereo not drawn)
N

Next record, please: CCCCCCCCCCCCCC(=O)O[C@@H]1[C@@H](C)[C@@]2(O)[C@@H](C=C(CO)C[C@@]3(O)C(=O)C(C)=C[C@@H]23)C2C(C)(C)[C@@]21OC(C)=O (stereo partly drawn)
Y

====

- runDescription: qHTS for differential inhibitors of proliferation of Plasmodium falciparum line 3D7 (AID 1876)
- experimentalSetup: P. falciparum 3D7 proliferation inhibition; series mostly up to 28.7 µM
Records with an inconclusive call do not appear. Activity calls are given as the source filed them. The call rests on the fitted dose curve; in most records, active means well fitted curve in the direction sought with a large enough effect; inconclusive means small, poorly fitted or top-dose-only effect, or another doubt; inactive means no such curve, though single readings can be large or run the other way.
Pick from active, inactive when you respond.

{"compound": "C=CCN1CC[C@]23c4c5ccc(O)c4O[C@@H]2/C(=N/N=C2\\CC[C@@]4(O)C6Cc7ccc(O)c8c7[C@@]4(CCN6CC=C)[C@@H]2O8)CC[C@@]3(O)C1C5", "labelClass": "active"}
{"compound": "C=CCN1CC[C@]23c4c5ccc(O)c4O[C@H]2/C(=N/NC(=O)c2ccccc2)CC[C@@]3(O)[C@H]1C5", "labelClass": "active"}
{"compound": "C[C@]12Cc3cn4c(nc3C=C1CCC1C2CC[C@@]2(C)[C@H]1CC[C@@]2(O)C#N)nc1ccccc14 (stereo partly specified)", "labelClass": "active"}
{"compound": "CCCN(CCC)C1CCc2cccc(O)c2C1 (stereo unspecified)", "labelClass": "inactive"}
{"compound": "CNC(=O)OCC[N+](C)(C)C", "labelClass": "inactive"}

What classification did O=P(O)(O)C(Cl)(Cl)P(=O)(O)O end up with in this test?
inactive

Next record, please: Cc1[nH]c2ccc(O)cc2c1CCN
inactive

Next record, please: COc1ccc(OC)c(C(O)C(C)N)c1 (stereo unspecified)
inactive

====

- runDescription: qHTS assay to identify small molecule inhibitors of chordoma cells - UCH-2 (AID 1259356); further: on the % scale 0 is the no-effect control and ±100 the full control effect
- experimentalSetup: UCH-2 chordoma viability, CellTiter-Glo ATP luminescence, 48 h; series mostly up to 46.1 µM
Results filed as inconclusive are left out. Activity calls are given as the source filed them. Calls come from the whole dose curve; as a rule, active = well fitted cell-killing curve with a large enough effect; inconclusive = small, poorly fitted or top-dose-only effect; inactive = flat fitted curve, though single readings scatter.
Pick from active, inactive when you respond.

Example cases with answers are listed next.
{"compound": "Cc1cc(C)cc(C(=O)OC2C[C@H]3CC[C@@H](C2)N3C)c1 (some centres undefined)", "labelClass": "inactive"}
{"compound": "N#CN", "labelClass": "inactive"}
{"compound": "C=C[C@H]1CN2CC[C@H]1C[C@@H]2[C@@H](O)c1ccnc2ccccc12", "labelClass": "inactive"}

What classification did O=CC=O end up with in this test?
inactive

Next record, please: O=c1[nH]cc(N(CCCl)CCCl)c(=O)[nH]1
inactive

====

- Test system: FAB9
- runDescription: qHTS profiling for inhibitors of Plasmodium falciparum proliferation (AID 504749); further: nearly all actives have a fitted effect of over 60% in size
- experimentalSetup: P. falciparum in erythrocytes, SYBR Green DNA, 72 h; series mostly up to 28.7 µM
Inconclusive results are not listed. Activity calls are given as the source filed them. Calls follow the shape of the dose curve; as a rule, active = well fitted inhibition curve with a large enough effect; inconclusive = small, poorly fitted or top-dose-only effect; inactive = flat fitted curve, though single readings scatter.
Pick from active, inactive when you respond.

Example cases with answers are listed next.
{"molecule": "CCON=O", "labelClass": "inactive"}
{"molecule": "COCC(C)N(C(=O)CCl)c1c(C)csc1C (stereo unspecified)", "labelClass": "inactive"}
{"molecule": "[Cl-].[Cl-].[Hg+2]", "labelClass": "active"}
{"molecule": "Clc1ccccc1Cl", "labelClass": "inactive"}
{"molecule": "C=CCN=C=S", "labelClass": "inactive"}

What classification did O=CC=O end up with in this test?
inactive

Next record, please: S=C(S)N1CCNCC1
inactive

====

- subjectOfTest: Phosphoglycerate kinase, glycosomal (Trypanosoma brucei brucei) (UniProt P07378)
- Sequence (P07378 whole entry, looked up): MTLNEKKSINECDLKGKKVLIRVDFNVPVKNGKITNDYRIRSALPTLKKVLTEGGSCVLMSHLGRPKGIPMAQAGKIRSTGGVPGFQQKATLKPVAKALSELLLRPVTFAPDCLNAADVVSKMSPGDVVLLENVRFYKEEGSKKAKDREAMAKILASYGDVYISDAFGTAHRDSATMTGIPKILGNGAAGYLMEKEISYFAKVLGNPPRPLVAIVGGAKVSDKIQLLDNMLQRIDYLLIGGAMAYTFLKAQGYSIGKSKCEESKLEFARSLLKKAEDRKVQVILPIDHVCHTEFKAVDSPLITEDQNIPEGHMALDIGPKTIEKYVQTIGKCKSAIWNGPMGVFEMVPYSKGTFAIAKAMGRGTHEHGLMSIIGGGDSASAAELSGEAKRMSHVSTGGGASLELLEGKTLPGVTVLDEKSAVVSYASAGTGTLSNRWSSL
- runDescription: qHTS Validation Assay to Find Inhibitors of Phosphoglycerate Kinase (AID 504547)
- experimentalSetup: enzymatic PGK inhibition, coupled luminescence read-out; series mostly up to 57.5 µM
Calls of active or inactive are those of the source. Calls come from the whole dose curve; as a rule, active = well fitted inhibition curve with a large enough effect; inconclusive = small, poorly fitted or top-dose-only effect; inactive = flat fitted curve, though single readings scatter.
Pick from active, inactive when you respond.

Example cases with answers are listed next.
{"molecule": "CCCN(CCC)[C@@H]1CCc2cccc(O)c2C1", "labelClass": "inactive"}
{"molecule": "C[N+]1(C)C2CCC1CC(OC(=O)c1c[nH]c3ccccc13)C2 (configuration not stated)", "labelClass": "inactive"}
{"molecule": "c1ccc2cc(CC3=NCCN3)ccc2c1", "labelClass": "inactive"}
{"molecule": "CC(C)[C@@]1(NC(=O)[C@@H]2C[C@@H]3c4cccc5[nH]cc(c45)C[C@H]3N(C)C2)O[C@@]2(O)[C@@H]3CCCN3C(=O)[C@H](Cc3ccccc3)N2C1=O", "labelClass": "inactive"}
{"molecule": "O=C1CC[C@@]2(O)C3Cc4ccc(O)c5c4C2(CCN3CC2CC2)[C@H]1O5 (some centres not stated)", "labelClass": "inactive"}
{"molecule": "CC1(C(=O)O)C2CCC(O2)C1(C)C(=O)O (configuration not stated)", "labelClass": "inactive"}
{"molecule": "NC(N)=NOCC[C@H](N)C(=O)O", "labelClass": "inactive"}
{"molecule": "C=CCN1CCc2cccc3c2[C@H]1Cc1ccc(O)c(O)c1-3", "labelClass": "inactive"}
{"molecule": "COc1ccc(OC)c(C(O)C(C)N)c1 (configuration not stated)", "labelClass": "inactive"}
{"molecule": "N=C(N)c1ccc(CS(=O)(=O)F)cc1", "labelClass": "inactive"}

What classification did NC(Cc1cc(O)c(O)cc1O)C(=O)O (configuration not stated) end up with in this test?
active

Next record, please: CC(=O)c1c(O)c(C)c(O)c(Cc2c(O)c3c(c(C(=O)/C=C/c4ccccc4)c2O)OC(C)(C)C=C3)c1O
inactive

Next record, please: N[C@@H](CCl)C(=O)O
inactive

====

- runDescription: qHTS profiling for inhibitors of Plasmodium falciparum proliferation (AID 504749); further: nearly all actives have a fitted effect of over 60% in size;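 on activity, negative = inhibition: 0% = DMSO vehicle and full inhibition = artemisinin control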
- experimentalSetup: P. falciparum in erythrocytes, SYBR Green DNA, 72 h; at 28.7 µM (top of the series); parasite line B
- Experimental: NIH National Institute of Allergy and Infectious Diseases [NIAID] NIH Chemical Genomics Center [NCGC] […] Because mature erythrocytes lack DNA, only Plasmodium-derived DNA is detected. NCGC Assay Protocol Summary: The SYBR Green viability assay was adapted from a method described previously (Plouffe et al., 2008). […] The following morning, fluorescence intensity at 485(14) nm excitation and 535(25) nm emission wavelengths was measured on an EnVision (Perkin Elmer) plate reader. […]
Records with an inconclusive call do not appear.
// reported activity, negative = inhibition for each item listed
Lab book: enter the figure in %, no units written.

Reference set (3 entries):
{"compound": "O=C(OCCN1CCCCC1)C(O)(c1ccccc1)c1ccccc1", "activity, negative = inhibition, %": -1.95}
{"compound": "CN1c2ccccc2C(NCCCCCCC(=O)O)c2ccc(Cl)cc2S1(=O)=O (centres undefined)", "activity, negative = inhibition, %": -5.71}
{"compound": "O=C1CCO1", "activity, negative = inhibition, %": -7.7}

Moving on to the next compound.
Dear colleague, I am looking for the recorded activity, negative = inhibition of the following compound: C=CCN(C1=NCCN1)c1c(Cl)cccc1Cl
1.37

====

- runDescription: Quantitative high throughput screen for delayed death inhibitors of the malarial parasite plastid, 96 hour incubation (AID 488745);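 further: luciferase-expressing P. falciparum in erythrocytes at 2% hematocrit and 0.1% parasitemia; on the % scale 0 is the no-effect control and ±100 the full control effect; nearly all actives have a fitted effect of over 70% in size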
- experimentalSetup: Plasmodium falciparum growth; series mostly up to 28.7 µM
Results filed as inconclusive are left out. Active and inactive are the calls of the source. Calls follow the shape of the dose curve; as a rule, active = well fitted inhibition curve with a large enough effect; inconclusive = small, poorly fitted or top-dose-only effect, or effect the other way; inactive = no such curve, though single readings can be large or run the other way.
Pick from Y (active), N (inactive) when you respond.

{"compound": "NNC(N)=O", "labelClass": "N"}
{"compound": "CP(=O)(O)C1=CCNCC1", "labelClass": "N"}
{"compound": "N[C@@]1(C(=O)O)CC[C@@H](C(=O)O)C1", "labelClass": "N"}

What classification did NC(=O)COc1c(F)cc(SCCNS(=O)(=O)c2ccccc2)cc1F end up with in this test?
N

Next record, please: CCCN(CCC)CCc1ccc(O)c(O)c1
N

Next record, please: NCC(CP(=O)(O)O)c1ccc(Cl)cc1 (stereo unspecified)
N

Next record, please: CN1CCc2cccc(Cl)c2CC1
N

Next record, please: NCCc1c[nH]c2ccc(C(N)=O)cc12
N
